Test system: K4 kissing-loop RNA reporter
Assay name: apparent KD of K4 kissing-loop reporter; higher = weaker reporter binding
Setup conditions: Eterna round: R107; input ligand: theophylline 20 uM
Measured apparent KD of K4 kissing-loop reporter accompanies every entry in the list below.
Your answer should be a number followed by the unit of measure.

Solved cases below.
>>> reported_value("AAUUCUCUUUUUGAUACCAGCGAAUCUGAGUGAUGUUCUAAGCCAUACAAUUGAGUAAAUCGCCCUUGGCAGCAAUUCGUGGGUG [theeternabot_exclusion_KL_Theo_B_20]")
"921 nM"
>>> reported_value("AUAUCUGUUCGAAAGAACGGAUCUUCGGAAGGAGCGCGUGAAAACGCAGGUAGGUCGCCGAAGUUAUUAGGUAGUGAUGUUACCU [Arginine A K4 7]")
"101 nM"
>>> reported_value("AGUGUUAGGUUAGAUACCAGCCGUUCGUGAAUAGUCUUCGAACCGCCAGUGAUGUUGGCAGGCCCUUGGCAGCUAACAGAACAGA [Lagelare]")
"159 nM"
>>> reported_value("CCUGCAGCUGUAACCGAGUGAUGCUACGGACGAGGACCGGUACGGCCGCCACUCGCCAGUGAUGUUGGUGUGGGAGGACGUAACU [KL-XTryp-A22]")
"178 nM"
>>> reported_value("UUGUUUGGUUGAGAGGUUGGGCGAGAUGAUACCAGUAGAGAAGAGUACCCUUGGCAGCAUAGGAGAGAUAUAGUGAUGUUGUAUG [SSTheophA.S]")
"498 nM"

Request: May I ask what apparent KD of K4 kissing-loop reporter has been recorded for GCGGCGGGCCAAGGAUAUAUAUUGGAGUGAUGUUGUUCAUUUAUUUGAGCUAGUGAUGUUGGUCAAAUAGAAGGUGGCCCGCCGC [whbob_Ex_FMNB__2th217] ?
Response: 44.8 nM

Request: Value lookup for apparent KD of K4 kissing-loop reporter; key = GGCAGUGAUGUUGCCUAAGCAAUGCAUGCGGAGGAUAUUCGUUUGGGAAGAAGGCCGCAGCGUUCUCUCGAGUGAUGUUCGAGUA [Same State FMN A GF 20]
Response: 158 nM

Request: Which apparent KD of K4 kissing-loop reporter is reported for this sequence? CGCCGCAAGGCGAGCGCUCCCACUCCGGAAGGAGCGCCCGCAAGGGCAGGUAGGUCGCCGGAGUGAUGUUCCGGUGGAGGGCUCG [#2 Exclusion - Arginine A Attempt #15 (Inspired by Omei)]
Response: 222 nM

Request: Value lookup for apparent KD of K4 kissing-loop reporter; key = CAACAUCACAACUUCUUCGUCCUAGAAGACUAGGAUAUCAGGAAACUGAGAAGGAGUCUCUGCAGUGAUGUUGCAGCUAGGACGA [[K]'-[F2]'-[F1]'-[F1]-[F2]-[K1]-[K2]-[F]''_Design2b]
Response: 266 nM

Request: Looking for the measured apparent KD of K4 kissing-loop reporter of UAUUCUGUUCGAAAGAACGGAAUUUCGGAAGGAGCGCGAGAAAUCGCAGGUAGGUCGCCGAAAUUAUUAGGUAGUGAUGUUACCU [Arginine A K4 6] , can you help?
Response: 101 nM

Request: I'd like to know its apparent KD of K4 kissing-loop reporter. The sequence in question is AGUGAUGUUUUUUUUAAGAGUGAUGUUUUUCGAGGACCGGUACGGCCGCCACUCGAGUGAUGAGUGCGUUGUUGUGAUGUUUAGU [#11 K4 Tryptophan A Exclusion]
Response: 413 nM

---

Let's look at some sequences and their measured apparent KD of MS2 coat protein.
Test system: MS2 coat protein
Assay name: apparent KD of MS2 coat protein; designed switch direction (-1 OFF switch, 1 ON switch): 1; higher = weaker reporter binding
Setup conditions: input ligand: none
# number only, unit nM dropped from output

>>> reported_value("UAUAUUAUGGUAGGAUAUCUAGGAUAUGGGAAGAGCUAAGCUUGGAAGUCACUUCACCCAGAAGGAGAGAAGGACCAUAAUAUU [pwkr ssNG2 2FMN + F9.5] (Eterna round: R96, puzzle: Same State NG 2)")
76.7

Request: Can you share its apparent KD of MS2 coat protein? I mean this sequence: AGAUGUUAAUCAGGAUAUGGGCACAUGAGGAUCACCCAUGUAUUUUCGAUGCUAUGUGGAGACGUCUAGAAGGGAUGGCUAACA [SameState NG2 #86] (Eterna round: R96, puzzle: Same State NG 2)
Response: 185

---

// reported apparent KD of MS2 coat protein per item
Tested on: MS2 coat protein
Assay name: apparent KD of MS2 coat protein; designed switch direction (-1 OFF switch, 1 ON switch): -1; higher = weaker reporter binding
Setup conditions: input ligand: microRNA oligo, concentration not stated
Please don't drop the unit; write it after the number.

>>> reported_value("UUACUACAUGUAGGAUAUGCGUGGCGAAGCUAUGCAGAAGGACAUGAGGAUCACCCAUGUUUUAGCGUCUGCGUACAGAUGCGU [JL ENG1 1.47] (Eterna round: R96, puzzle: Exclusion NG 1)")
"14.8 nM"
>>> reported_value("CUGCUCCGUGUAGGAUAUGCGCGCAACCAACGCGCAGAAGGACAUGAGGAUCACCCAUGUAUGUUAUUAUCACGUGAGGCGCAG [Design 33] (Eterna round: R96, puzzle: Exclusion NG 1)")
"13.2 nM"
>>> reported_value("AUUGAUAGCACAGGAUAUUGAGAUUUGAAUUGACAAGAAGGGUGUACAUGAGGAUCACCCAUGUAAUGGCUGCCUCGUUGAUUA [JR_ExcNG1_Sub005] (Eterna round: R96, puzzle: Exclusion NG 1)")
"45.6 nM"
>>> reported_value("GCGCCAUCGUGAGAUGGCGUACCGACAUGAGGAUCACCCAUGUAGGAUAUCGAUUGCUUUGCAGUCGAGAAGGGCGUGAUAAGU [JL ENG3 3.74] (Eterna round: R96, puzzle: Exclusion NG 3)")
"24.7 nM"
>>> reported_value("CCAUAUAACUGAGGAUAUCAUCGCCACUGACGUUGAGAAGGCAGACAUGAGGAUCACCCAUGUGAUUUCUCAAUAUUAUACAUC [Prohibition 79 - Jieux - Exclusion NG 1] (Eterna round: R96, puzzle: Exclusion NG 1)")
"33.8 nM"
>>> reported_value("AUUAUAUAGAUAGGAUAUAGAAUAUUAUUUUAACAUGAGGAUCACCCAUGUAACCUUAUGUGUAGCUAGAAGGAUCAUUUAUUA [Title] (Eterna round: R96, puzzle: Exclusion NG 2)")
"69.5 nM"
>>> reported_value("ACAUGUUAUCUAGGAUAUUGGACACAUGAGGAUCACCCAUGUACCCGGAGGCUUUACUAUGAGUUCGAGAAGGAGAUGUACAUG [Ex NG2 #71] (Eterna round: R96, puzzle: Exclusion NG 2)")
"67.6 nM"
>>> reported_value("GCUGGGUCAGGAUAUACAGGGUCGAAAGAUCUGUGAUACCUACAUGAGGAUCACCCAUGUAGAAGGGACUGGGC [ChP 11-04-2015 #10] (Eterna round: R96, puzzle: Exclusion 2)")
"14 nM"

Request: What value of measured apparent KD of MS2 coat protein is listed for GCGCCAUCGUGAGAUGGCGUAUAUACAUGAGGAUCACCCAUGUAGGAUAUCGAUUGCUUUGCAGUCGAGAAGGGCGUGAUAAUU [JL ENG3 3.69] (Eterna round: R96, puzzle: Exclusion NG 3) ?
Response: 60.5 nM

---

Test system: K4 kissing-loop RNA reporter;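 note: bound reporter read as fluorescence of individual clusters on recovered sequencing chips by microscopy, with normalized cluster intensities fitted with a binding model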
Assay name: apparent KD of K4 kissing-loop reporter; higher = weaker reporter binding
Setup conditions: Eterna round: R107; input ligand: none
Measurement label: apparent KD of K4 kissing-loop reporter (µM)
Note: unit µM is implicit; provide only the numeric part.

Here are 2 sequences together with their reported answers.
>>> reported_value("GGAUGGUAGGCGGCCGCCACUAAAAGUGAACACAUACAAGCCAGUGAUGUUGGUAUGAUGGACUAUAGGACCGGGCCUAGAUAGA [Exclusion - Tryptophan B (Freestyle 6)]")
0.522
>>> reported_value("UCGCUCGAGUAAGGAUAUCAAUAUCAAAGGUCGUAGUGAUGUUAUACCAGGCCAAUUUGGCGGUAGUGAGAAGGUACUAGCAGUU [theeternabot_sameState_KL_FMN_B_38]")
0.688

Request: Quick one: apparent KD of K4 kissing-loop reporter for UGUACCGAGUCAGGAUAUGCCGUCGAAAGACGAAAGCAGUGAUGUUGCAUCGAUCGAAAGAUCGUUGCAGAAGGGACUUGGUACU [FmnBS 23 #SwitchBubble #StaticStem #DoubleMagnetSystem] ?
Response: 0.244

---

apparent KD of MS2 coat protein overview
Test system: MS2 coat protein
Assay name: apparent KD of MS2 coat protein; designed switch direction (-1 OFF switch, 1 ON switch): -1; higher = weaker reporter binding
Setup conditions: input ligand: none
Could you give me the number in µM? Just the number is fine.

Recorded results for 4 sequences are shown here.
>>> reported_value("CAGUAGGCAGGAUAUACAUGAGGAUCACCCAUGUGAUUUAGUGCACGCGUACGUGUACGUAGAAGGGCCUACUG [JL 3.27 m7] (Eterna round: R97, puzzle: Exclusion 3)")
0.0179
>>> reported_value("UGAUUGUUUACCAGAUUAUACAUGAGGAUCACCCAUGUAGAUCCUACGUGCACGUUAUACAGCUCGUCUUAUUCCCA [Sensor-V1 #74] (Eterna round: R97, puzzle: Sensor, turn-off variant 1)")
0.0362
>>> reported_value("GCAGCAACUCUAAUCAAAUCAACAUGAGGAUCACCCAUGUCUCAGGAUAUGGUCUGGAUUACAGGCCAGAAGGGAGAAAGCUGC [Eli exng3 - 048] (Eterna round: R96, puzzle: Exclusion NG 3)")
0.0166
>>> reported_value("GUUUGACAUGAGGAUCACCCAUGUAAGGAUAUACGAGUAGAUGAUAGAUAGAUAGUAUGUAGAAGGUACGUGUU [EX1 #61] (Eterna round: R97, puzzle: Exclusion 1)")
0.0928

Request: Field request: apparent KD of MS2 coat protein | item: UAUGGUAAAGUCAGGAUAUACGUGCAGAUUUCUAGGUAGAAGGGACAUGAGGAUCACCCAUGUAUGGUAGUGUU [Ex4 #45] (Eterna round: R97, puzzle: Brourd's mod of Exclusion 4)
Response: 0.0812
